Below: compounds with pIC50 recorded for MAP kinase-interacting serine/threonine-protein kinase 1 (Homo sapiens, UniProt Q9BUB5) in separate published works.
Answers are plain numbers, as −log10 of the molar value.

Some compounds with recorded pIC50:
OCCNc1ccc2ncc(-c3ccc(Cl)cc3)n2n1    5.53
CN1CCN(C(=O)c2ccc(-c3nn4c(-c5ccncc5)cnc4s3)cc2)CC1    6.68
COCCNc1ccc2ncc(-c3ccc(F)cc3)n2n1    5.39

// for each compound in input: emit pIC50
1. O=S(=O)(c1ccc(F)cc1F)N1CCc2c(sc3ncnc(Nc4cccc(F)c4)c23)C1
2. CC(C)C[C@](C)(N)COc1ccc(-c2ccnc(C(F)F)c2)cc1C(F)F
3. CC(C)(C)OC(=O)N1CCc2c(sc3ncnc(Nc4ccc(Br)cc4)c23)C1
4. Fc1cccc(Nc2ncnc3sc4c(c23)CCCC4)c1

1: 5.69; 2: 6.74; 3: 5.74; 4: 5.66

* * *

// cross-study collection: pIC50 for MAP kinase-interacting serine/threonine-protein kinase 1 (Homo sapiens, UniProt Q9BUB5)
Numbers only, as −log10 of the molar value.

Guide cases for pIC50, answers given:
c1cnn2c(-c3ccncc3)cnc2c1    5.42
CC(=O)N1CCN(C(=O)c2ccc(-c3cn4c(-c5ccc(O)cc5)cnc4cn3)cc2)CC1    6.65
CC(C)CNc1nn2c(-c3ccncc3)cnc2s1    5.21
COc1cccc(Nc2ncnc3sc4c(c23)CCN(S(=O)(=O)c2ccc(F)cc2F)C4)c1    5.73
OCCCNc1ccc2ncc(-c3ccccc3F)n2n1    5.49

Batch request: pIC50 for each of the following compounds.
1. COc1ccc(S(=O)(=O)N2CCc3c(sc4ncnc(Nc5ccc(Cl)cc5F)c34)C2)cc1
2. CN1CCc2c(sc3ncnc(Nc4ccc(Br)cc4)c23)C1
3. O=[N+]([O-])c1ccccc1S(=O)(=O)N1CCc2c(sc3ncnc(Nc4ccc(Cl)cc4)c23)C1

1: 5.94; 2: 5.77; 3: 5.78
